Experiment: Determination of drug solubility in aqueous and organic solvent;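 further: solid drug suspended at 50 mg/mL nominal in each solvent, vortexed and sonicated, then dissolved concentration in filtered supernatant quantified by HPLC against a calibration curve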
Assay type: physicochemical
Conditions: organic solvent or mixture, thermodynamic from solid; Table 3B; DMSO; read-out: Solubility DMSO
endpoint: solubility

Asked: Return reported solubility; argument: CC/C=C\C/C=C\C/C=C\C/C=C\C/C=C\C/C=C\CCC(=O)O[C@H](COc1nsnc1N1CCOCC1)CN(C(C)=O)C(C)(C)C
Given back: > 100 mg/mL

Asked: Need solubility of CCCCC/C=C\C/C=C\CCCCCCCC(=O)O[C@@H](CNC(C)(C)C)COc1nsnc1N1CCOCC1.O=C(O)/C=C\C(=O)O [Compound 70-1, Timolol-O-linoleic acid maleate] , thanks.
Given back: > 50 mg/mL

Asked: What does the record list as solubility for CCCCCCCCCCCCCCCCCC(=O)O[C@@H](C)C(=O)O[C@@H](C)C(=O)O[C@H](COc1nsnc1N1CCOCC1)CN(C(C)=O)C(C)(C)C [Compound 66-1, N-Acyl-Timolol-PLA (n = 2) Stearate] ?
Given back: > 100 mg/mL

Asked: Need solubility of CC/C=C\C/C=C\C/C=C\C/C=C\C/C=C\C/C=C\CCC(=O)NS(=O)(=O)c1cc2c(s1)S(=O)(=O)[C@@H](C)C[C@@H]2NCC , thanks.
Given back: > 100 mg/mL
